- systemTested: human DNPH1 (Homo sapiens, UniProt O43598)
- Sequence (O43598 whole entry): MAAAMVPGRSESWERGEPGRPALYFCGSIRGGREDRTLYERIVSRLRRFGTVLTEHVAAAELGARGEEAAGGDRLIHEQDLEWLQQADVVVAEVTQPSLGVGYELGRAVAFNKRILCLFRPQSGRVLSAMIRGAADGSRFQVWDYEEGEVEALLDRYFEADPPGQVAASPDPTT
- assay: Kinetic parameters of human DNPH1 with 2'-deoxynucleoside 5'-monophosphates as substrates
- Format: biochemical
- Design: made in house; host or cells: E. coli Bli5
- conditionDescription: substrate of human DNPH1; double reciprocal plots, five concentrations
endpointLabel: Km (µM)

// known answers, use as guide
smilesinput=O=c1[nH]cnc2c1ncn2[C@H]1C[C@H](O)[C@@H](COP(=O)(O)O)O1 endpointlabel=Km unittag=µM datavalue=104
smilesinput=O=c1ccn([C@H]2C[C@H](O)[C@@H](COP(=O)(O)O)O2)c(=O)[nH]1 endpointlabel=Km unittag=µM datavalue=7800
smilesinput=Nc1ccn([C@H]2C[C@H](O)[C@@H](COP(=O)(O)O)O2)c(=O)n1 endpointlabel=Km unittag=µM datavalue=2500

(1) Cc1cn([C@H]2C[C@H](O)[C@@H](COP(=O)(O)O)O2)c(=O)[nH]c1=O
(2) Nc1ncnc2c1ncn2[C@H]1C[C@H](O)[C@@H](COP(=O)(O)O)O1
Compare Km: is it lower for 1 or for 2 ? // return label of chosen record 2
